- MEASURED TARGET: hA2B (human A2B adenosine receptor) (Homo sapiens, UniProt P29275)
- Construct: expressed in transfected cells; host or cells: HEK-293
- Sequence (P29275 1-332): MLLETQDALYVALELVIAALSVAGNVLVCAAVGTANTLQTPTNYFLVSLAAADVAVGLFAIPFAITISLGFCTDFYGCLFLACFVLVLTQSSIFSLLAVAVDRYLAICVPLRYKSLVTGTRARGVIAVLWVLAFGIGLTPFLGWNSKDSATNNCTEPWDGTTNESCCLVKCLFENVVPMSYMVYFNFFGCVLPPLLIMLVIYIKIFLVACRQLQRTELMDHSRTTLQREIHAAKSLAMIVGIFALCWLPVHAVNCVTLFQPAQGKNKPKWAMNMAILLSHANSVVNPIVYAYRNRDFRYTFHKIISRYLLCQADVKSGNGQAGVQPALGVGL
- ASSAY PROTOCOL: Radioligand binding, displacement of [3H]DPCPX, transfected HEK-293 cells
- EXPERIMENTAL CONDITIONS: human HEK-293 cells, n = 2, read-out: hA2B % displacement of specific binding at 1 μM
Measured inhibition at 1 µM of individual entries
PROPERTY NAME: inhibition at 1 µM

COMPOUND	MEASURED VALUE
COc1ccc(-c2cc(NC(=O)COCC(=O)N(C)CC(=O)NC(C)(C)C)nc(-c3ccc(OC)cc3)n2)cc1	2%
COc1ccc(-c2cc(NC(=O)COCC(=O)NCC(=O)NC3CCCCC3)nc(-c3ccc(OC)cc3)n2)cc1	3%
COc1ccc(-c2cc(NC(=O)CCC(=O)N(C)CC(=O)NCc3ccccc3)nc(-c3ccc(OC)cc3)n2)cc1	2%
COc1ccc(-c2cc(NC(=O)COCC(=O)NCC(=O)NC(C)(C)C)nc(-c3ccc(OC)cc3)n2)cc1	3%
COc1ccc(-c2cc(NC(=O)COCC(=O)N(C)CC(=O)NCc3ccccc3)nc(-c3ccc(OC)cc3)n2)cc1	2%
COc1ccc(-c2cc(NC(=O)CCC(=O)N3CCN(CC(=O)NCc4ccccc4)CC3)nc(-c3ccc(OC)cc3)n2)cc1	2%
COc1ccc(-c2cc(NC(=O)CCC(=O)NCC(=O)NC(C)(C)C)nc(-c3ccc(OC)cc3)n2)cc1	4%
COc1ccc(-c2cc(NC(=O)COCC(=O)N(C)CC(=O)NC3CCCCC3)nc(-c3ccc(OC)cc3)n2)cc1	2%
COc1ccc(-c2cc(NC(=O)COCC(=O)N3CCN(CC(=O)NCc4ccccc4)CC3)nc(-c3ccc(OC)cc3)n2)cc1 [10c]	1%
COc1ccc(-c2cc(NC(=O)COCC(=O)N3CCN(CC(=O)NC4CCCCC4)CC3)nc(-c3ccc(OC)cc3)n2)cc1 [10b]	2%
COc1ccc(-c2cc(NC(=O)CCC(=O)N3CCN(CC(=O)NC(C)(C)C)CC3)nc(-c3ccc(OC)cc3)n2)cc1	1%
COc1ccc(-c2cc(NC(=O)CCC(=O)NCC(=O)NCc3ccccc3)nc(-c3ccc(OC)cc3)n2)cc1	3%

Origin of values: paper PMC8842279
